Parameter pest or weed control at 500 ppm: see the listing below.
tested on: Uromyces appendiculatus; assay: Example E: in vivo preventive test on Uromyces appendiculatus (bean rust); settings: 264 h, 500 ppm of active ingredient, bean plants, preventive spray, evaluated 11 days after inoculation, read-out: efficacy

Past entries and their recorded results:
>  <compound>
CC(O)(Cn1cncn1)c1cnc(Oc2ccc(Cl)cc2)cc1C(F)(F)F (stereo not drawn)

>  <endpoint_value>
90 to 100%

$$$$
>  <compound>
CC(O)(Cn1cncn1)c1ccc(Oc2ccc(C(F)F)cc2)nc1Cl (stereo not drawn)

>  <endpoint_value>
90 to 100%

$$$$
>  <compound>
O=C(Cn1cncn1)c1cnc(Oc2ccc(Cl)cc2)cc1C(F)(F)F

>  <endpoint_value>
80 to 89%

$$$$
>  <compound>
OC(Cn1cncn1)(c1ccc(Oc2ccc(Cl)cc2)nc1C(F)(F)F)C1CC1 (stereo not drawn)

>  <endpoint_value>
90 to 100%

$$$$
>  <compound>
CC(O)(Cn1cncn1)c1ccc(Oc2ccc(Cl)cc2)nc1C(F)(F)F (stereo not drawn)

>  <endpoint_value>
90 to 100%

$$$$

// moving on: another record for pest or weed control at 500 ppm
Identify measured pest or weed control at 500 ppm corresponding to Cc1ccc(Oc2ccc(C(O)Cn3cncn3)c(Cl)n2)cc1Cl (stereo not drawn)
90 to 100%

* * *

Parameter chromatographic logP: see the listing below.
test: Measurement of LogP values by HPLC on reversed phase columns (EEC directive 79/831 Annex V.A8); assay type: physicochemical; conditions: reversed phase HPLC column, method [a]; compounds of formula (VII), Table 4
// no unit string in output, number only

>  <compound_smiles>
O=C(Cn1cncn1)c1cnc(Oc2ccc(Cl)cc2)cc1C(F)(F)F

>  <chromatographic logP>
2.92

$$$$

// moving on: another record for chromatographic logP
Identify measured chromatographic logP corresponding to O=C(Cn1cncn1)c1ccc(Oc2ccc(Cl)cc2)nc1C(F)(F)F
2.92

* * *

Test system: Septoria tritici
Experiment: Example C: in vivo preventive test on Septoria tritici (leaf spot on wheat)
Conditions: Zymoseptoria tritici, 576 h; 500 ppm of active ingredient; wheat plants, preventive spray; evaluated 24 days after inoculation; read-out: efficacy
Description: Example C: In Vivo Preventive Test on Septoria tritici (Leaf Spot on Wheat) [table] The active ingredients are made soluble and homogenized in a mixture of Dimethyl sulfoxide/Acetone//Tween® 80 and then diluted in water to the desired concentration. The young plants of wheat are treated by spraying the active ingredient prepared as described above. Control plants are treated only with an aqueous solution of Acetone/Dimethyl sulfoxide/Tween® 80. […] The test is evaluated 24 days after the inoculation. […]
Parameter pest or weed control at 500 ppm: see the listing below.

>  <compound>
OC(Cn1cncn1)c1ccc(Oc2ccc(Cl)cc2)nc1Cl (centres unmarked)

>  <pest or weed control at 500 ppm>
90 to 100%

$$$$
>  <compound>
CC(O)(Cn1cncn1)c1ccc(Oc2ccc(Cl)cc2)nc1C(F)(F)F (centres unmarked)

>  <pest or weed control at 500 ppm>
90 to 100%

$$$$
>  <compound>
CC(O)(Cn1cncn1)c1ccc(Oc2ccc(S(F)(F)(F)(F)F)cc2)nc1Cl (centres unmarked)

>  <pest or weed control at 500 ppm>
90 to 100%

$$$$

Identify measured pest or weed control at 500 ppm corresponding to O=C(Cn1cncn1)c1ccc(Oc2ccc(Cl)cc2)nc1C(F)(F)F
80 to 89%

Identify measured pest or weed control at 500 ppm corresponding to CC(O)(Cn1cncn1)c1cnc(Oc2ccc(Cl)cc2)cc1C(F)(F)F (centres unmarked)
80 to 89%

Identify measured pest or weed control at 500 ppm corresponding to OC(Cn1cncn1)(c1ccc(Oc2ccc(Cl)cc2)nc1C(F)(F)F)C1CC1 (centres unmarked)
90 to 100%

Identify measured pest or weed control at 500 ppm corresponding to OC(Cn1cncn1)c1ccc(Oc2ccc(Cl)cc2)nc1C(F)(F)F (centres unmarked)
90 to 100%
